Provenance of the data: paper PMC5872125

molecular target: DnaGC (C-terminal helicase-binding domain of DnaG primase) (Escherichia coli)
Sequence (P0ABS5 434-581): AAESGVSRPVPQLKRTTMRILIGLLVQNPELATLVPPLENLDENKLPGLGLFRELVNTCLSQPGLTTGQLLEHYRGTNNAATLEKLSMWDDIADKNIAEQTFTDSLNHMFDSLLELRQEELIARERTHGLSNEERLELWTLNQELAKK
pKd: −log10 of the molar value.
Known pKd of a selection of compounds

SMILES STRING	pKd
O=C(O)CSc1c[nH]c2ccccc12	~2.51
O=C(O)CN1C(=O)c2cccc3cccc1c23	~2.96
Fc1ccc(-c2nnn[nH]2)cc1	~2.49
O=C(O)CCSc1ccccc1	~2.55
